TEST TARGET: hP2X2a receptors (Homo sapiens)
Sequence (Q9UBL9 whole entry): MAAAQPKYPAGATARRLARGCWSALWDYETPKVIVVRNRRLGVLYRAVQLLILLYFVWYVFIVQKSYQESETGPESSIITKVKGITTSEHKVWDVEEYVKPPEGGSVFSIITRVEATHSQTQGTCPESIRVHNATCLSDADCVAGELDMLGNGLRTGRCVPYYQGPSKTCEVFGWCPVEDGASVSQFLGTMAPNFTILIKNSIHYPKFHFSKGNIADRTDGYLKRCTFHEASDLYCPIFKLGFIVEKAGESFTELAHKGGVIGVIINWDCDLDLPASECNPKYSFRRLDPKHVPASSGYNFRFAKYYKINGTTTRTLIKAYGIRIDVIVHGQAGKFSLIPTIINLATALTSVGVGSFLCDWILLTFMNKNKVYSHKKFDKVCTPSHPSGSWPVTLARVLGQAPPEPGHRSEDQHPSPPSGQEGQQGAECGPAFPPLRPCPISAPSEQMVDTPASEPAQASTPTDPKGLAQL
MEASUREMENT NOTES: Two-electrode voltage-clamp of Xenopus oocytes expressing hP2X2a receptors
CONDITIONS: oocytes expressing hP2X2a, four cells, -60 mV; read-out: mean ATP EC50 (peak inward current)
QUANTITY NAME: EC50 (µM)
Give the value, in units of µM, as a plain number.

Problem: Recorded EC50 for "Nc1ncnc2c1ncn2[C@@H]1O[C@H](COP(=O)(O)OP(=O)(O)OP(=O)(O)O)[C@@H](O)[C@H]1O" , please?
Solution: 16

Measured values drawn from patent US6242216A for this set.
